I'd be grateful if you could share measured competition rate for these entries.
target: T1, human MSLN-FL-his protein (human, UniProt Q13421 296-580); assay: competitive ELISA; row Tab021; further: test concentration or dose not given here
T1 construct: made in HEK293E cells, purified on nickel column; also called hMSLN-FL-his; human MSLN full-length protein; not shown: His tag
T1 sequence (Q13421 other isoform, or with tags, fused parts or gaps): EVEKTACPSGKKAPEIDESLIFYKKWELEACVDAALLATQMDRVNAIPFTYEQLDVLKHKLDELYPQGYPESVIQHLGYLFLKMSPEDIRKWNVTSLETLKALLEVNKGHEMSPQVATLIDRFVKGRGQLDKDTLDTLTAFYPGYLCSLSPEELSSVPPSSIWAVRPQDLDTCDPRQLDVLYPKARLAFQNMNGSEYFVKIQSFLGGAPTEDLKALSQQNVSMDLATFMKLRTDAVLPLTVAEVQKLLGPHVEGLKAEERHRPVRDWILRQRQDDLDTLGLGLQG
Quick note: give the figure in %, leave out the unit.

Qu. Form field: reported competition rate of S009-F8-19.21 (antibody, human IgG1, kappa, V domains shown, human-murine chimeric antibody, human IgG1/kappa constant regions) VH: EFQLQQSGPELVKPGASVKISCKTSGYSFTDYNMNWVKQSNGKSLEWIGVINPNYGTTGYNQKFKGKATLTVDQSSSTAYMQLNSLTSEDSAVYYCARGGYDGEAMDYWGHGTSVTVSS VL: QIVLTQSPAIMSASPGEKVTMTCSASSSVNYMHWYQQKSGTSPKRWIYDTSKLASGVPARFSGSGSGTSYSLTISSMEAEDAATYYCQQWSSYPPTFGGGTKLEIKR
Ans. 4.93

Qu. Form field: reported competition rate of S009-F8-5.15 (antibody, human IgG1, kappa, V domains shown, human-murine chimeric antibody, human IgG1/kappa constant regions) VH: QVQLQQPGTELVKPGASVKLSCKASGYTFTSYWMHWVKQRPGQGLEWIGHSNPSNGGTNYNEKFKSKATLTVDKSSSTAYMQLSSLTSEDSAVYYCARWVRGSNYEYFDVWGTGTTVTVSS VL: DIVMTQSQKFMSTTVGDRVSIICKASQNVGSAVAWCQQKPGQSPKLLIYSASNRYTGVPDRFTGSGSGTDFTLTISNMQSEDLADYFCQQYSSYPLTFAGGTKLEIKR
Ans. 1.09

Qu. Form field: reported competition rate of S009-F8-15.19 (antibody, human IgG1, kappa, V domains shown, human-murine chimeric antibody, human IgG1/kappa constant regions) VH: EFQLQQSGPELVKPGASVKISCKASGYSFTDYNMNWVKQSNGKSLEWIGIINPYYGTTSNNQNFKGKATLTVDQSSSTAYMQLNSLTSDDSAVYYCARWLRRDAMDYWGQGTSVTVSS VL: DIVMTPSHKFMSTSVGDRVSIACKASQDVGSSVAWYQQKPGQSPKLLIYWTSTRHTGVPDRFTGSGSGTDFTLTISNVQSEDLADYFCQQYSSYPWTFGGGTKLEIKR
Ans. -2.08

Qu. Form field: reported competition rate of S009-F8-18.9 (antibody, human IgG1, kappa, V domains shown, human-murine chimeric antibody, human IgG1/kappa constant regions) VH: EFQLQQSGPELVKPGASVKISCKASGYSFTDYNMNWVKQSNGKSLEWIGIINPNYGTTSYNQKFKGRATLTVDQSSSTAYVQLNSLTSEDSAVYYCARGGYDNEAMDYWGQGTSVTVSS VL: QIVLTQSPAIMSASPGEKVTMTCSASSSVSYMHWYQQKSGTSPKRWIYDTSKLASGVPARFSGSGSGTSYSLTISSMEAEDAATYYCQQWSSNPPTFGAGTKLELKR
Ans. 2.63

Qu. Form field: reported competition rate of S009-F8-31.22 (antibody, human IgG1, kappa, V domains shown, human-murine chimeric antibody, human IgG1/kappa constant regions) VH: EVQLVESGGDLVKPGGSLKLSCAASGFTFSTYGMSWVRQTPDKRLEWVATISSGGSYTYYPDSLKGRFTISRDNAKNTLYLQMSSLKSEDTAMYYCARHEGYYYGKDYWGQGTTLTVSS VL: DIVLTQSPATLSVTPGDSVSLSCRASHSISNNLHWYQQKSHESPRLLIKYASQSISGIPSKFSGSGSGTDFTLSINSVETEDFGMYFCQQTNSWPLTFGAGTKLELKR
Ans. 10.3

Qu. Form field: reported competition rate of S009-F8-4.5 (antibody, human IgG1, kappa, V domains shown, human-murine chimeric antibody, human IgG1/kappa constant regions) VH: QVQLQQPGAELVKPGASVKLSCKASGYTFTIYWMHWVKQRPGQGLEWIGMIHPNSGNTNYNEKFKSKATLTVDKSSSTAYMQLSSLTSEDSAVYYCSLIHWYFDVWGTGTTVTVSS VL: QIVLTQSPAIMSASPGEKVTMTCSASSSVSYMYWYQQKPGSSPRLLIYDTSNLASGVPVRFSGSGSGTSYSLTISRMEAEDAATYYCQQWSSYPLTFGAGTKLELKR
Ans. 9.76

Qu. Form field: reported competition rate of S009-F8-7.5 (antibody, human IgG1, kappa, V domains shown, human-murine chimeric antibody, human IgG1/kappa constant regions) VH: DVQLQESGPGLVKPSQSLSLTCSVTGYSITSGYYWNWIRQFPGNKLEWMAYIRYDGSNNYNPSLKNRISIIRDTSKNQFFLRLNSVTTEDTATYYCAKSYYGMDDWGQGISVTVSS VL: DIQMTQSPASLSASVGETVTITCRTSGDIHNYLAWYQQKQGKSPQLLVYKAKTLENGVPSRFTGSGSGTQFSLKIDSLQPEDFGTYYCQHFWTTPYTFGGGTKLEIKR
Ans. 14.2

Qu. Form field: reported competition rate of S009-F8-27.1 (antibody, human IgG1, kappa, V domains shown, human-murine chimeric antibody, human IgG1/kappa constant regions) VH: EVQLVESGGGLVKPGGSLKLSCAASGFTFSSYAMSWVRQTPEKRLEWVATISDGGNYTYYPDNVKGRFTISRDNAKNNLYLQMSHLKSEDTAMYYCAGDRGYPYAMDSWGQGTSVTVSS VL: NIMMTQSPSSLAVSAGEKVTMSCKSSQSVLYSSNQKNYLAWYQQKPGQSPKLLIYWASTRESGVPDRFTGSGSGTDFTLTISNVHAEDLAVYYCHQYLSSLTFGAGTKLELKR
Ans. 12.2

Qu. Form field: reported competition rate of S009-F8-13.8 (antibody, human IgG1, kappa, V domains shown, human-murine chimeric antibody, human IgG1/kappa constant regions) VH: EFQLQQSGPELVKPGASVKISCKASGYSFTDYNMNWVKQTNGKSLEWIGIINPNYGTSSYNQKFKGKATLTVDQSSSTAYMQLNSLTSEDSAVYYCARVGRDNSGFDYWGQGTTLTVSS VL: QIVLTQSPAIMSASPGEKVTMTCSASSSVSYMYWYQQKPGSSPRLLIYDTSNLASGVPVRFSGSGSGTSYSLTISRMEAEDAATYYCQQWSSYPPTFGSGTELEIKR
Ans. 14.2

Qu. Form field: reported competition rate of S009-F8-12.13 (antibody, human IgG1, kappa, V domains shown, human-murine chimeric antibody, human IgG1/kappa constant regions) VH: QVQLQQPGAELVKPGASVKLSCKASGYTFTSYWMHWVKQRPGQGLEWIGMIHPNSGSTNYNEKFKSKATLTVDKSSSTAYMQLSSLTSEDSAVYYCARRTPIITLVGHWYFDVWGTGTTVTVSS VL: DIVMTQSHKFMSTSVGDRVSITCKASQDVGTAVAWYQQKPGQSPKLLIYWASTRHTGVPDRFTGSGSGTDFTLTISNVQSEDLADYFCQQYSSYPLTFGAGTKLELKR
Ans. 6.56
